Data origin, for the record: patent US20100004284A1

- study.target: rat mGluR5 (Rattus norvegicus, UniProt P31424)
- Construct: expressed in transfected cells
- Sequence (P31424 21-1171 isoform P31424-2 limits assumed): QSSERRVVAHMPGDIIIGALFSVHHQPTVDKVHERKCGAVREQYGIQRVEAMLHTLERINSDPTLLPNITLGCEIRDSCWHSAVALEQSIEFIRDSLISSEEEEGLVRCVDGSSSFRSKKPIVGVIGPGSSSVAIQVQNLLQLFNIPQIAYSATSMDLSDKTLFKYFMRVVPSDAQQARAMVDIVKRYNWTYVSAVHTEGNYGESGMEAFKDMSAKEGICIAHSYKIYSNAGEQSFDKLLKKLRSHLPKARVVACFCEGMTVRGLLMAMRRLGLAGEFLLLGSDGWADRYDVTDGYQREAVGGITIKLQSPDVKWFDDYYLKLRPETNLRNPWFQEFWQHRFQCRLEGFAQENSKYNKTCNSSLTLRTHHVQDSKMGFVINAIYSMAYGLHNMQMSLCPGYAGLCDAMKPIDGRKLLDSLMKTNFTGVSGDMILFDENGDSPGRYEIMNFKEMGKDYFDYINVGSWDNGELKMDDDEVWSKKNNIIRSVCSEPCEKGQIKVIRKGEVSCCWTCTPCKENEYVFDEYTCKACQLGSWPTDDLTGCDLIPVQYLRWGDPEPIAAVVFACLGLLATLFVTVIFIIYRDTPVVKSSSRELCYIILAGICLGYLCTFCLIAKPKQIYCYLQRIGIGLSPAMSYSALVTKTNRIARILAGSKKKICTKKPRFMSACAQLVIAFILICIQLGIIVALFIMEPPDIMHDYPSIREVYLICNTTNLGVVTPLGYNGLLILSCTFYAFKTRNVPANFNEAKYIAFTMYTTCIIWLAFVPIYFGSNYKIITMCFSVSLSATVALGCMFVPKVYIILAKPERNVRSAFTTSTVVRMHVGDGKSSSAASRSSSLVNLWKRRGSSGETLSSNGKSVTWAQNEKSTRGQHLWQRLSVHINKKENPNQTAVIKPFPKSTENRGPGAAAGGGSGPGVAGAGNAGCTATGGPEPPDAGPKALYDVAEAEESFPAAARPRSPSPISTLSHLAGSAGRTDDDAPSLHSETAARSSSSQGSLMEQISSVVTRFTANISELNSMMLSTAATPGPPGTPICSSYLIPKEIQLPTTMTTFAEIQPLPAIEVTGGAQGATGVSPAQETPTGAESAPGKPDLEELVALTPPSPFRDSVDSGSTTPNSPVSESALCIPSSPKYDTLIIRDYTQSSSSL
- experimental.protocol: mGluR5 assay on HEK-expressing rat mGluR5 (fluorescent cell based Ca2+ mobilization assay)
- run.parameters: HEK-293 cells stably expressing rat mGluR5; no co-addition of glutamate; mean of at least three independent experiments in duplicate; read-out: Ca++ Flux (mean EC50)
pEC50: −log10 of the molar value.
Assign pEC50 to each entry below.

Ask: For the compound shown here, "O=C(c1ccc(F)cc1)N1CCC[C@H](c2nc(Cc3ccc(F)cc3)no2)C1" , give the reported pEC50.
Reply: > 6.00

Ask: // query: "O=C(c1ccc(F)cc1)N1CCC[C@H](c2noc([C@@H](O)c3ccccc3)n2)C1"
Reply: < 5.00

Ask: // query: "O=C(c1ccccc1)c1nc([C@H]2CCCN(C(=O)c3ccc(F)cc3)C2)no1"
Reply: 5.00 to 6.00

Ask: // query: O=C(c1ccc(F)cc1)N1CCCC(c2nc(Oc3ccccc3)no2)C1 (stereo not shown)
Reply: > 6.00

Ask: // query: "C[C@@H](c1ccccc1)c1nc([C@H]2CCCN(C(=O)c3ccc(F)cc3)C2)no1"
Reply: 5.00 to 6.00

Ask: // query: "O=C(c1ccc(F)cc1)N1CCC[C@H](c2noc([C@H](O)c3ccccc3)n2)C1"
Reply: 5.00 to 6.00

Ask: // query: "C[C@H](c1ccccc1)c1nc([C@H]2CCCN(C(=O)c3ccc(F)cc3)C2)no1"
Reply: < 5.00

Ask: // query: "O=C(c1ccc(F)cc1)N1CCC[C@H](c2noc(Cc3ccc(F)cc3)n2)C1"
Reply: > 6.00

Ask: // query: O=C(c1ccc(F)cc1)N1CCCC(c2nc(Oc3cccc(F)c3)no2)C1 (stereo not shown)
Reply: > 6.00

Ask: // query: "O=C(c1ccc(F)cc1)N1CCC[C@H](c2noc(Nc3ccccc3)n2)C1"
Reply: 5.00 to 6.00

Ask: // query: "O=C(c1ccc(F)cc1)N1CCC[C@H](c2noc(CCc3ccccc3)n2)C1"
Reply: 5.00 to 6.00

Ask: // query: "O=C(c1ccc(F)cc1)N1CCC[C@H](c2noc(Cc3ccccc3)n2)C1"
Reply: > 6.00

Ask: // query: "O=C(c1ccc(F)cc1)N1CCC[C@H](c2nc(Sc3ccccc3)no2)C1"
Reply: < 5.00

Ask: // query: O=C(c1ccc(F)cc1)N1CCCC(c2nc(Oc3ccc(F)cc3)no2)C1 (stereo not shown)
Reply: 5.00 to 6.00

Ask: // query: "O=C(c1ccc(F)c(F)c1)N1CCC[C@H](c2nc(Cc3ccc(F)cc3)no2)C1"
Reply: > 6.00

Ask: // query: "O=C(c1ccc(F)nc1)N1CCC[C@H](c2nc(Oc3ccccc3F)no2)C1"
Reply: 5.00 to 6.00

Ask: // query: "O=C(c1ccc(F)cc1)N1CCC[C@H](c2noc(NCc3ccc(F)cc3)n2)C1"
Reply: 5.00 to 6.00

Ask: // query: "O=C(c1ccncc1F)N1CCC[C@H](c2nc(Oc3ccccc3)no2)C1"
Reply: 5.00 to 6.00

Ask: // query: "O=C(c1ccc(F)cc1)N1CCC[C@H](n2nnc(Cc3ccccc3)n2)C1"
Reply: > 6.00

Ask: // query: "O=C(c1ccc(F)nc1)N1CCC[C@H](c2nc(Oc3cccc(F)c3)no2)C1"
Reply: > 6.00

Ask: // query: "O=C(c1ccc(F)nc1)N1CCC[C@H](c2nc(Oc3ccccc3)no2)C1"
Reply: > 6.00

Ask: // query: "O=C(c1ccc(F)c(F)c1)N1CCC[C@H](c2noc(Cc3ccc(F)cc3)n2)C1"
Reply: > 6.00

###

Assign melting point to each entry below.

Ask: For the molecule shown here, "O=C(c1ccc(F)cc1)N1CCC[C@H](c2noc([C@@H](O)c3ccccc3)n2)C1" , give the reported melting point.
Reply: 168 to 172 °C

Ask: // query: "O=C(c1ccccc1)c1nc([C@H]2CCCN(C(=O)c3ccc(F)cc3)C2)no1"
Reply: 80 to 83 °C

Ask: // query: "O=C(c1ccc(F)cc1)N1CCC[C@H](c2noc(Cc3ccccc3)n2)C1"
Reply: 75 °C

Ask: // query: O=C(c1ccc(F)cc1)N1CCCC(c2nc(Oc3cccc(F)c3)no2)C1 (centres unmarked)
Reply: 99 to 102 °C

Ask: // query: O=C(c1ccc(F)cc1)N1CCCC(c2nc(Oc3ccccc3)no2)C1 (centres unmarked)
Reply: 96 to 100 °C

###

- study.target: mGluR5 (Rattus norvegicus, UniProt P31424)
- Construct: positive allosteric modulators of mGluR5 receptors in native preparations; endogenous in cells
- Sequence (P31424 21-1203): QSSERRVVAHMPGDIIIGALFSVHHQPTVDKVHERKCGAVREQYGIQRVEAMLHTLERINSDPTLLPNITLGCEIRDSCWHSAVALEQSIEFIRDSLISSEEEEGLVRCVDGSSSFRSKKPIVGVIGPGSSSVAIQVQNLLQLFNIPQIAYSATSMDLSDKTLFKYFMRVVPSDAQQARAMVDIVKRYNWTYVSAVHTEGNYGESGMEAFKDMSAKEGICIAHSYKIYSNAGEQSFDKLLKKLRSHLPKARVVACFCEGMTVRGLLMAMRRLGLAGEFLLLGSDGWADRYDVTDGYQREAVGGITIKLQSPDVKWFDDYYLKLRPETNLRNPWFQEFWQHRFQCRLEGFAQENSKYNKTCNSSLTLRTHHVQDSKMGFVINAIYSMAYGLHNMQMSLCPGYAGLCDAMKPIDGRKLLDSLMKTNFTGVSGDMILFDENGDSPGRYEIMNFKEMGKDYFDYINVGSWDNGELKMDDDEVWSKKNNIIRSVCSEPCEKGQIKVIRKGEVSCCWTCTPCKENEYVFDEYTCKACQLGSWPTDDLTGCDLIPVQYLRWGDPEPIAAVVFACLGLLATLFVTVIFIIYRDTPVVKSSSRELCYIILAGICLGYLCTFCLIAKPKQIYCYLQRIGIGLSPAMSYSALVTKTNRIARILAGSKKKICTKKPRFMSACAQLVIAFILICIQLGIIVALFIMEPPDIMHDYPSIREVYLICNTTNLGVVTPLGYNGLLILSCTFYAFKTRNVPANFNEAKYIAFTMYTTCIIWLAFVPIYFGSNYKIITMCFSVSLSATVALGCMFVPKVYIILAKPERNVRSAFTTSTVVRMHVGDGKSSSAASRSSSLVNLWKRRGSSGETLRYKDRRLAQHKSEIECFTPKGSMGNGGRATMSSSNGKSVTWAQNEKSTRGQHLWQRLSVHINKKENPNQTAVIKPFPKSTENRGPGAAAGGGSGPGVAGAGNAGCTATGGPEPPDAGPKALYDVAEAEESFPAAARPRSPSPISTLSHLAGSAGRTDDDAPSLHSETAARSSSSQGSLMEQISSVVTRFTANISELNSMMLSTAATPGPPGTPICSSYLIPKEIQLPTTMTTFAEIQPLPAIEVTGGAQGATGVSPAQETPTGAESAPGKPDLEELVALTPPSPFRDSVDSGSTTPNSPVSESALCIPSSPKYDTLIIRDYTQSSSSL
- experimental.protocol: mGluR5 binding assay ([3H]-MPEP radioligand binding, rat brain membranes)
- run.parameters: 3 nM [3H]-MPEP, 1 h at 4° C., read-out: IC50, inhibition of [3H]-MPEP binding
measured.endpoint: IC50

Ask: For the compound shown here, "O=C(c1ccc(F)cc1)N1CCC[C@H](c2nc(Cc3ccc(F)cc3)no2)C1" , give the reported IC50.
Reply: < 30 µM
